test system: HSV-1 KOS; assay: HSV-1 infectivity plaque assay, virions pretreated with compound, Vero cells; type: cell-based, herpes simplex virus type 1; conditions: Table 1; read-out: IC50 (μM) on infectivity of HSV-1 on Vero cells
Metric Name: IC50 (µM)

Compound	Result
O=c1[nH]c(=O)n([C@H]2C[C@H](O)[C@@H](CO)O2)cc1C#Cc1ccc2c3cccc4cccc(c5cccc1c52)c43 [dUY11]	0.05
